experiment.summary: folding enthalpy; higher = less favourable; fluorescence melt of hairpins on a sequencing array, two-state fit
conditions.used: sodium 0.088 M
Could you please report measured folding enthalpy for the items listed next?
# unit: kcal/mol | format: bare number

Input line: Query (sequence): GCAATGCGAAAGCCATGC (((..((....))..))) ; field requested: folding enthalpy
Output line: -18.3

Input line: Which measured folding enthalpy value corresponds to GTCCAACGAAAGTTAGAC (((.(((....))).))) ?
Output line: -29.6

Input line: // lookup folding enthalpy for GAGTCCCGAAAGGGCCTC (((.(((....))).)))
Output line: -26.6

Input line: # lookup: folding enthalpy of GGCCAAGGAAACTCAGCC (((..((....))..)))
Output line: -11.7

Input line: For GCGGAGCGAAAGCCCCGC ((((.((....)).)))) , what is its reported folding enthalpy?
Output line: -35.3

Input line: Reported folding enthalpy, sequence GTCTGGGGAAACCCAAAC ((.((((....)))).)) : ____
Output line: -14.3

Input line: // query folding enthalpy value for entry GATCGTCGCTACGATC ((((((....))))))
Output line: -41.6

Input line: Which folding enthalpy value belongs to GAGACCGAAAGGTTTCTC ((((((....)))..))) ?
Output line: -22.5

Input line: GET /values?readout=folding enthalpy&item= GCCCTCGAAAGAGGCGGC ((((((....)))..)))
Output line: -19.1

Input line: Field request: folding enthalpy | item: GACGTGAAAACGTC (((((....)))))
Output line: -32.7

----------
experiment.summary: folding enthalpy; higher = less favourable; fluorescence melt of hairpins on a sequencing array, two-state fit
conditions.used: sodium 0.088 M
So basically: folding enthalpy at -20 kcal/mol or higher? That is Criterion met. Lower than -20 kcal/mol? That is Criterion not met.

Input line: Is reported folding enthalpy greater than or equal to -20 kcal/mol here: GATCCTTTAAAGGATC ((((((....))))))
Output line: Criterion not met

Input line: // inclusive: folding enthalpy at least -20 kcal/mol? input: GACCCTGGAAACAGGGCC (.(((((....))))).)
Output line: Criterion met

Input line: Dear colleague, could you confirm whether GCAAGACGAAAGTCTGC (((.(((....)))))) has folding enthalpy at or above -20 kcal/mol?
Output line: Criterion not met

Input line: Can GATCTTGACCAAGATC ((((((....)))))) be said to have folding enthalpy at or above -20 kcal/mol?
Output line: Criterion not met

Input line: Determine whether measured folding enthalpy meets or exceeds -20 kcal/mol for GAGTAGACGAAAGTCCTC (((..(((....))))))
Output line: Criterion met

Input line: folding enthalpy >= -20 kcal/mol for GTCTGGCGAAAGCCGGAC (((.(((....))).))) ?
Output line: Criterion not met

Input line: Please indicate if the recorded folding enthalpy for GCCAAGCGAAAGCTATGC ((..(((....)))..)) meets or exceeds -20 kcal/mol.
Output line: Criterion met

Input line: Identify whether the reported folding enthalpy of the following sequence is -20 kcal/mol or greater: GGTACTGGAAACAATACC ((((.((....)).))))
Output line: Criterion met

Input line: Dear colleague, could you confirm whether GTGTCAGGAAACTGGTAC ((..(((....)))..)) has folding enthalpy at or above -20 kcal/mol?
Output line: Criterion met

Input line: In plain terms: is recorded folding enthalpy at least -20 kcal/mol for TCCCTGAAAAGGGA (((((....))))) ?
Output line: Criterion met

Input line: Is folding enthalpy at least -20 kcal/mol? Consider GTTCACGAAAGTGAAC ((((((....))))))
Output line: Criterion not met

Input line: folding enthalpy >= -20 kcal/mol for GATCTTCTTGAAGATC ((((((....)))))) ?
Output line: Criterion not met

Input line: Tell me whether folding enthalpy is at least -20 kcal/mol here: GACGGCGAAAGCCTGTC ((((((....))).)))
Output line: Criterion met

----------
experiment.summary: melting temperature; fluorescence melt of hairpins on a sequencing array, two-state fit, raised by 9.35 °C to match UV melts
conditions.used: sodium 0.088 M
test.readout: Tm (°C)
// note: answer is a bare numeric in °C

Input line: Name the reported Tm value associated with the sequence CTTCGGAAACGAAG (((((....)))))
Output line: 50.3

Input line: Would you kindly share the measured Tm for GTGGACCCGAAAGGGCAC (((..(((....)))))) ?
Output line: 49.3

Input line: Quick one: Tm for GCAACCGAAAGGTATGC ((((((....))).))) ?
Output line: 50.3

Input line: Form field: reported Tm of GCTGTCGAAAGACTAGC ((((((....))).)))
Output line: 50.3

Input line: Name the reported Tm value associated with the sequence GTTCGGGCGAAAGCCAAC (((..(((....))))))
Output line: 26.2

Input line: What value of measured Tm is listed for GCGGACTCCGC ((((...)))) ?
Output line: 52

Input line: Any idea what its Tm is? The sequence is GTTTTCGAAAGAAACAAC ((((((....)))..)))
Output line: 26.6

Input line: Record request: Tm value, item GCGTCCGGAAACAGACGC (((((.(....).)))))
Output line: 54

Input line: Entry CGCGGACGCTCCGCG ((((((...)))))) : reported Tm = ?
Output line: 66.6

Input line: Any idea what its Tm is? The sequence is GCGTGTGGAAACACACAC (.(((((....))))).)
Output line: 44.4

Input line: Any idea what Tm was measured for GACAGTGGAAACACTATC ((.((((....)))).)) ?
Output line: 29.5

Input line: Would you kindly share the measured Tm for GATCTCGCAGAGATC ((((((...)))))) ?
Output line: 68

Input line: Consider the sequence GACAGAACGAAAGTTGTC (((..(((....)))))) and give its measured Tm.
Output line: 36.8

Input line: Given the sequence GCAATACCGAAAGGTTGC (((..(((....)))))) , what is its reported Tm?
Output line: 45.5

Input line: # lookup: Tm of GTCTTCGAAAGAAAGAC ((((((....))).)))
Output line: 42.6

Input line: Field request: Tm | item: GCATATGGAAACATATGC (((((((....)))))))
Output line: 56.3

Input line: Give the measured Tm of GCATCGGGAAACCGACAC (..((((....))))..) .
Output line: 25.8

Input line: // Tm lookup, key: GTCTGGCGAAAGCCGGAC (((.(((....))).)))
Output line: 69

Input line: I would be grateful if you could share the reported Tm for GTGGAGGGAAACCTCCGC (.(((((....))))).) .
Output line: 56.2

Input line: Please report the recorded Tm for GAGCGGGGAAACCCACTC (((.(((....))).))) .
Output line: 46.2

Input line: I would be grateful if you could share the reported Tm for CAAACGAAAGTTTG (((((....))))) .
Output line: 53

Input line: Data request, read-out Tm, for GCTAGGCGAAAGCCATGC ((..(((....)))..))
Output line: 53.5

Input line: Please give the measured Tm for this sequence: GCGAGACGAAAGTCACGC (((.(((....))).)))
Output line: 68.5

Input line: Using the record for GATCTATAGCTAGATC ((((((....)))))) , report its Tm.
Output line: 36.5

Input line: Which Tm is reported for this sequence? GAGTTCCGAAAGGAGCTC (((.(((....))).)))
Output line: 57.1

Input line: May I ask what Tm has been recorded for GATCATTTCCATGATC ((((((....)))))) ?
Output line: 46.1

Input line: Param item = GCATTACGAAAGTATGC (((.(((....)))))) ; retrieve measured Tm.
Output line: 48.7

Input line: What Tm value was documented for this sequence, GTTCGCGAAAGCGTCAAC ((((((....)))..))) ?
Output line: 28.1

Input line: Look at this sequence and give its reported Tm. GCGCGCGAAAGCGAACGC ((((((....)))..)))
Output line: 60

Input line: For the sequence GATCGCCCAGCGATC ((((((...)))))) , what Tm is on record?
Output line: 67.4

Input line: What does the record list as Tm for GGGCGGTCGAAAGACCCC (((..(((....)))))) ?
Output line: 53.9

Input line: // Tm lookup, key: GCCCTGCGAAAGCCGTGC ((.(.((....)).).))
Output line: 31.7

Input line: Consider the sequence TCGGGGAAACCCGA (((((....))))) and give its measured Tm.
Output line: 53.3
